study system: S. aureus ATCC 29213 FabI (Staphylococcus aureus, UniProt Q6GI75)
Sequence (Q6GI75 whole entry): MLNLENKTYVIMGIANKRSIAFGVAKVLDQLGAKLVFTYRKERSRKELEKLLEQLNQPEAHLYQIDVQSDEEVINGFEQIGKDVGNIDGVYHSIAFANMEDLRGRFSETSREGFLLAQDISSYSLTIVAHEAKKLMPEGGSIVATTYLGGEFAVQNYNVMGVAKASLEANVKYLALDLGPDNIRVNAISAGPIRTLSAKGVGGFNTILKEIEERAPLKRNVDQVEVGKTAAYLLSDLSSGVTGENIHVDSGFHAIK
method description: Staphylococcus aureus FabI enzyme inhibition assay
Format: biochemical
condition summary: read-out: FabI (300.235) IC50 (converted)
reported property: IC50 (µM)
Please give a number only; it is taken to be in µM.

INSERT INTO results (compound, unit_annotation, reported) VALUES
  ('O=C1Nc2ncc(/C=C/C(=O)N3CC4C=C(c5nccs5)CC4C3)cc2CN2CCOCC12 (centres unmarked) [Cpd. No. 74]', 'µM', 0.992),
  ('O=C1CNCc2cc(/C=C/C(=O)N3C[C@H]4CC(c5ccccc5)=C[C@H]4C3)cnc2N1 (single isomer, unassigned) [compound 46]', 'µM', 0.924);

Shift focus to the following entry.
Data request, read-out IC50, for O=C1Nc2ncc(/C=C/C(=O)N3CC4C=C(c5ccccc5)CC4C3)cc2Cn2cncc21 (centres unmarked) [compound 71] 1.1
